B1: COUP transcription factor 1, residues 83 to 159; numbered along this chain, P10589 (parent)
chain: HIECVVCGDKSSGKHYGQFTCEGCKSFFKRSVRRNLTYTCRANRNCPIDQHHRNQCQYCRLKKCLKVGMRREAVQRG

- Variants of: B1
- Test summary: abundance fitness (aPCA) (normalised: wild type 0, dead -1); higher = more abundant; growth selection in yeast, the domain comes from the species named
- Setup conditions: Homo sapiens
Attribute: abundance fitness

C59D | -0.729
K63G | -0.526
Q57L | -0.221
D49T | -0.152
K66I | -0.079

// next item, abundance fitness requested
Exam item: What does the data say about its abundance fitness? Entry: `R71T`
Marked response: 0.02

Cited source: the Human Domainome abundance scans (Beltran et al. 2025)
